Test Target: T1, human TREM2 expressed on cells (human, UniProt Q9NZC2 19-230)
T1 construct: BW5147.G.1.4 cells stably expressing human TREM2 together with Dap12, or endogenous TREM2 of primary human myeloid cells; also called huT2 BW; hTREM2 expressing cell line
T1 sequence: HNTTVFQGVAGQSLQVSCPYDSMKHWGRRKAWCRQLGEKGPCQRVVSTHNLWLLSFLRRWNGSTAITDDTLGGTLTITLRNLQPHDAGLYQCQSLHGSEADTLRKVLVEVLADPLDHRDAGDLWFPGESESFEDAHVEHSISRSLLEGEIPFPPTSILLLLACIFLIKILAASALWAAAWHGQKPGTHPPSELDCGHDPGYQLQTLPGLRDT
Experiment: FACS, hTREM2 BW cells
Measurement Type: Kd
Express your answer as a number followed by its unit.

Exercise: # Kd lookup, item AL2p-58 (antibody, V domains shown, Fab and IgG formats under one id (explicit huIgG1 is m95, PSEG is m96)) VH: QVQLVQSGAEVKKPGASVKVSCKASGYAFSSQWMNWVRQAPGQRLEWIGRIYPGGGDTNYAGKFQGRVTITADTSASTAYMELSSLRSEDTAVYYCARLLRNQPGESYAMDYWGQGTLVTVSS VL: DVVMTQSPDSLAVSLGERATINCRSSQSLVHSNRYTYLHWYQQKPGQSPKLLIYKVSNRFSGVPDRFSGSGSGTDFTLKISRVEAEDVGVYYCSQSTRVPYTFGQGTKLEIK
Solution: 0.51 nM

Exercise: // returns reported Kd for input AL2p-33 (antibody, V domains shown, Fab and IgG formats under one id) VH: EVQLVQSGAEVKKPGSSVKVSCKASGYAFSSSWMNWVRQAPGQGLEWMGRIYPGDGDTNYAQKFQGRVTITADESTSTAYMELSSLRSEDTAVYYCARLLRNQPGESYAMDYWGQGTLVTVSS VL: GVVMAQTPLSLSVTPGQPASISCRTSQSLVHSNGYTYLHWYLQKPGQSPQLLIYKVSNRVSGVPDRFSGSGSGTDFTLKISRVEAEDVGVYYCSQSTRVPYTFGQGTKLEIK
Solution: 4.5 nM

Exercise: Field request: Kd | item: AL2p-52 (antibody, V domains shown, Fab and IgG formats under one id) VH: EVQLVQSGAEVKKPGSSVKVSCKASGYAFSSHWMNWVRQAPGQGLEWMGRIYPGEGDTNYAQKFHGRVTITADESTSTAYMELSSLRSEDTAVYYCARLLRNQPGESYAMDYWGQGTLVTVSS VL: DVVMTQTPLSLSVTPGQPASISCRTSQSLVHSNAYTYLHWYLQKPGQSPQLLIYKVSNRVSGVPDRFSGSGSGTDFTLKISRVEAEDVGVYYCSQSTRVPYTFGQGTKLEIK
Solution: 2.42 nM

The reported numbers originate from patent US20200317776A1.
